experimentNotes: PRK clinical study, residual compound I in bandage contact lens
Type: in vivo, human
testContext: human, bandage contact lens extract, topical, 0.925 mg, 0.55 mL extraction fluid, Day 4; read-out: concentration of compound I in bandage contact lens extract, range
propertyMeasured: concentration at 4 day

[[record]]
inputsmiles = "CC(C)c1nc2cc(O)ccc2c(=O)n1-c1ccc(C#N)cc1"
propertymeasured = "concentration at 4 day"
experimentalresult = "284 to 22600 ng/mL"


---

experimentNotes: PRK clinical study, plasma pharmacokinetics of compound I (LC-MS/MS)
Format: in vivo, human
testContext: human, plasma, topical, 2.5 %, across 4 days of repeated QID dosing; read-out: observed plasma Cmax, range
Method: Pharmacokinetic (PK) samples were collected at the time points defined in the visit schedule supra, with PK blood collection windows shown in Table 27. […] Compound I was quantified in plasma using a validated LC-MS/MS method; the lower limit of quantification (LLOQ) was 0.05 ng/mL. […] When feasible, bandage contact lenses (BCL) exposed to study drug were collected and analyzed for residual drug exposure after treatment (LLOQ: 5.00 ng/mL in 0.55 mL of extraction fluid, or 2.75 ng/BCL). […]
propertyMeasured: Cmax

[[record]]
inputsmiles = "CC(C)c1nc2cc(O)ccc2c(=O)n1-c1ccc(C#N)cc1"
experimentalresult = "0.195 to 7.56 ng/mL"


---

experimentNotes: Pharmacokinetic study of exploratory formulations, single bilateral topical ocular dosing
Format: in vivo
testContext: male, rabbit, cornea / plasma, topical; NZW rabbits; read-out: exposure in cornea relative to plasma
propertyMeasured: Kp

[[record]]
compound = "CC(C)c1nc2cc(O)ccc2c(=O)n1-c1ccc(C#N)cc1 [Compound I]"
experimentalresult = "~500"


---

experimentNotes: Solubility of compound I in solvents
Type: physicochemical
testContext: organic solvent or mixture; solvent: Polyethylene Glycol 400
propertyMeasured: solubility (µg/mL)

[[record]]
compound = "CC(C)c1nc2cc(O)ccc2c(=O)n1-c1ccc(C#N)cc1 [Compound I]"
unit = "µg/mL"
experimentalresult = 1660


---

experimentNotes: PRK clinical study, plasma pharmacokinetics of compound I (LC-MS/MS)
Type: in vivo, human
testContext: human, plasma, topical or ocular, 2.5 %, max; profile day 4; plasma; topical ocular 2.5% compound I; read-out: Tmax
propertyMeasured: Tmax (h)

[[record]]
molecule = "CC(C)c1nc2cc(O)ccc2c(=O)n1-c1ccc(C#N)cc1 [Compound I]"
experimentalresult = 2.08


---

experimentNotes: PRK clinical study, plasma pharmacokinetics of compound I (LC-MS/MS)
Assay type: in vivo, human
testContext: human, plasma, topical or ocular, 2.5 %, mean; profile day 1 (first dose); plasma; topical ocular 2.5% compound I; PK analysis set; read-out: Cmax
propertyMeasured: Cmax (ng/mL)

[[record]]
inputsmiles = "CC(C)c1nc2cc(O)ccc2c(=O)n1-c1ccc(C#N)cc1"
propertymeasured = "Cmax"
unit = "ng/mL"
experimentalresult = 0.454


---

experimentNotes: PRK clinical study, plasma pharmacokinetics of compound I (LC-MS/MS)
Assay type: in vivo, human
testContext: human, plasma, topical, 2.5 %, after the 13th dose (Day 4); read-out: median Tmax, plasma
propertyMeasured: Tmax (min)

[[record]]
inputsmiles = "CC(C)c1nc2cc(O)ccc2c(=O)n1-c1ccc(C#N)cc1"
propertymeasured = "Tmax"
experimentalresult = 28


---

experimentNotes: PRK clinical study, plasma pharmacokinetics of compound I (LC-MS/MS)
Type: in vivo, human
testContext: human, plasma, topical or ocular, 2.5 %, after the first dose (Day 1), unilateral topical ocular 2.5%; read-out: median Tmax, plasma
propertyMeasured: Tmax (min)

[[record]]
inputsmiles = "CC(C)c1nc2cc(O)ccc2c(=O)n1-c1ccc(C#N)cc1"
propertymeasured = "Tmax"
experimentalresult = 27.5

